Recorded inhibition at 16 µg/mL by entry
- Test system: Kasumi-1 cell line
- Protocol Summary: leukemia cell growth inhibition, MTT
- Format: cell-based
- Condition Summary: Homo sapiens; Kasumi-1, 16 μg/mL compound, 72 h; read-out: IR (cell proliferation inhibition rate)
Give just the numeric value; % need not be written.

Below: 2 compounds and their reported inhibition at 16 µg/mL.
1) COC(=O)[C@]12CCC(C)(C)CC1C1=CCC3[C@@]4(C)CC(C(=O)NCCCN(C)C)C(=O)C(C)(C)C4CC[C@@]3(C)[C@]1(C)CC2 (stereo partly drawn)
99.1
2) CC1(C)CC[C@]2(C(=O)O)CC[C@]3(C)C(=CC[C@@H]4[C@@]5(C)CC[C@H](O)C(C)(C)[C@@H]5CC[C@]43C)[C@@H]2C1
17.2

We now examine a further compound.
inhibition at 16 µg/mL lookup needed for CCN(CC)CCNC(=O)C1C[C@@]2(C)C(CC[C@]3(C)C2CC=C2C4CC(C)(C)CC[C@]4(C(=O)OC)CC[C@]23C)C(C)(C)C1=O (stereo partly drawn) , thanks. 99.3

----------
- Test system: A549 cell line
- Protocol Summary: solid tumor cell growth inhibition, MTT
- Assay type: cell-based
- Condition Summary: Homo sapiens; A549, 16 μg/mL compound, 72 h; read-out: IR (cell proliferation inhibition rate)
Quick rule for you: inhibition at 16 µg/mL at 30% or higher means 1.0, lower means 0.0.

1. COC(=O)[C@]12CCC(C)(C)CC1C1=CCC3[C@@]4(C)CC(C(=O)NC5CC5)C(=O)C(C)(C)C4CC[C@@]3(C)[C@]1(C)CC2 (some centres unmarked)
0.0

Quick check: does CCN(CC)CCCNC(=O)C1C[C@@]2(C)C(CC[C@]3(C)C2CC=C2C4CC(C)(C)CC[C@]4(C(=O)O)CC[C@]23C)C(C)(C)C1=O (some centres unmarked) have inhibition at 16 µg/mL greater than or equal to 30%? 0.0

Then what about the compound COC(=O)[C@]12CCC(C)(C)CC1C1=CCC3[C@@]4(C)CC(C(=O)NCCCN(C)C)C(=O)C(C)(C)C4CC[C@@]3(C)[C@]1(C)CC2 (some centres unmarked) ? 1.0

Next compound: CCN(CC)CCNC(=O)C1C[C@@]2(C)C(CC[C@]3(C)C2CC=C2C4CC(C)(C)CC[C@]4(C(=O)O)CC[C@]23C)C(C)(C)C1=O (some centres unmarked) 1.0

Next record, please: COC(=O)[C@]12CCC(C)(C)C[C@H]1C1=CC[C@@H]3[C@@]4(C)CC(C(=O)NCCN5CCOCC5)C(=O)C(C)(C)[C@@H]4CC[C@@]3(C)[C@]1(C)CC2 (some centres unmarked) 0.0

----------
Reported IC50 values are given for each entry in this list.
- Test system: Hep G2 cell line
- Protocol Summary: solid tumor cell growth inhibition, MTT
- Assay type: cell-based, human
- Condition Summary: Homo sapiens, HepG2; Hep G2, 72 h
Respond numerically; units are µg/mL and should not be typed.

1. CCN(CC)CCCNC(=O)C1C[C@]2(C)[C@H]3CC=C4[C@@H]5CC(C)(C)CC[C@]5(C(=O)OC)CC[C@@]4(C)[C@]3(C)CC[C@H]2C(C)(C)C1=O (stereo partly drawn)
1.94

With those in mind, consider the next compound.
Hep G2 cell line / IC50 / COC(=O)[C@]12CCC(C)(C)CC1C1=CCC3[C@@]4(C)CC(C(=O)NCCCN5CCCC5)C(=O)C(C)(C)C4CC[C@@]3(C)[C@]1(C)CC2 (stereo partly drawn) : value? 2.58
